Each recorded value in this set is attributed to ChEMBL document CHEMBL5442219.

# System under test: Sodium-dependent dopamine transporter (Homo sapiens) (UniProt Q01959)
# Sequence (Q01959 whole entry): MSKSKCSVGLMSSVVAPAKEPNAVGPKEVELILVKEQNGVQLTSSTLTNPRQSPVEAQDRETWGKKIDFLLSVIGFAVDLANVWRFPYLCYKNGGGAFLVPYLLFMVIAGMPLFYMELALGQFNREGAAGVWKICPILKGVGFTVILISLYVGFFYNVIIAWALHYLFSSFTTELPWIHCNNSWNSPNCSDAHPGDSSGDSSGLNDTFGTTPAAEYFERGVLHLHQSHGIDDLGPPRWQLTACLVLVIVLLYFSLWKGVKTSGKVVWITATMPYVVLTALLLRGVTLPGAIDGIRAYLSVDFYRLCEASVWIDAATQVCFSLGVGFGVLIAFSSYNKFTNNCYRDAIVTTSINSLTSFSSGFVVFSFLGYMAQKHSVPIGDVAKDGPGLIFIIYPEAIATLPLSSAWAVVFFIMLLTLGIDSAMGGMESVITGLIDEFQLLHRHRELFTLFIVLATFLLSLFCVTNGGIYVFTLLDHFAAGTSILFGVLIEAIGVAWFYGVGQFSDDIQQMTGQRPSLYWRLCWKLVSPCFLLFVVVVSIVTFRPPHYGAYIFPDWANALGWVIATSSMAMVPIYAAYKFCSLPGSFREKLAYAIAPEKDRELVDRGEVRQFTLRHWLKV
# Condition description: Compound concentration 10 µM
# Description: PDSP Primary Binding target: SLC6A3 - Compounds are tested at 10 uM concentration, plate are incubated at room temperature in the dark for 90 minutes. Reaction are stopped by vacuum filtration onto 0.3% polyethyleneimine soaked filter mats using Filtermate harvester. Scintilation cocktail is then melted onto microwave-dried filters on a hot plate and the radio activity is counted in Microbia counter.
Property measured: inhibition

Q: Item under review: `Cc1nc(-c2ccc(-c3ccc(C(=O)N4CCc5cc6c(cc54)C4(CCN(C)CC4)CO6)cc3)c(C)c2)no1` . Reported inhibition?
A: 70.2%

Q: Item under review: CC(C)NCC(O)COc1ccc(CCOCC2CC2)cc1 (centres undefined) . Reported inhibition?
A: 27.9%

Q: Item under review: `Cc1cc(NC(=O)NCCN2CCC(O)(Cc3ccccc3)CC2)c2ccccc2n1` . Reported inhibition?
A: 43.9%

Q: Item under review: `C[C@@H](NCCCc1cccc(C(F)(F)F)c1)c1cccc2ccccc12` . Reported inhibition?
A: 70.4%

Q: Item under review: `O=C(O)c1cc(-c2ccc(C3CCNCC3)cc2)c2ccc(-c3ccc(C(F)(F)F)cc3)cc2c1` . Reported inhibition?
A: 82.5%

Q: Item under review: `COC(=O)[C@H]1[C@H]2C[C@H]3c4[nH]c5ccccc5c4CCN3C[C@H]2CC[C@@H]1O` . Reported inhibition?
A: 6.37%

Q: Item under review: `O=c1ccn([C@@H]2O[C@H](COP(=O)(O)OP(=O)(O)O)[C@@H](O)[C@H]2O)c(=O)[nH]1` . Reported inhibition?
A: 6.84%

Q: Item under review: `CC1(C)SSC(C)(C)[C@@H](NC(=O)[C@@H](N)Cc2ccc(O)cc2)C(=O)NCC(=O)N[C@@H](Cc2ccccc2)C(=O)N[C@H]1C(=O)O` . Reported inhibition?
A: 27.3%

Q: Item under review: `c1nc(CC2CCNCC2)c[nH]1` . Reported inhibition?
A: 14.6%
